target_or_system: T1, human CD33 antigen (human, UniProt P20138 18-259, limits assumed)
T1 construct: whole entry named; also called Siglec-3
T1 sequence (P20138 18-259 limits assumed): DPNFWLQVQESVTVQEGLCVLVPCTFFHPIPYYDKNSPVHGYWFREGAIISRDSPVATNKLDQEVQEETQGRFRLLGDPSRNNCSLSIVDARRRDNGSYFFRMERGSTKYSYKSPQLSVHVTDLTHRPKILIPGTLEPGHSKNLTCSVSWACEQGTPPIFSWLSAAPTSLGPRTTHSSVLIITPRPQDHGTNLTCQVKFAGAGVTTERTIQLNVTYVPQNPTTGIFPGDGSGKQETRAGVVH
protocol_summary: SPR (Biacore T200), 37 C, scFv-Fc, 0 uM MTX
Each entry below lists one item and its recorded koff value.
Quick note: give the figure in s⁻¹, leave out the unit.

| binder | u | koff |
| --- | --- | --- |
| P03_A01 scFv-Fc fusion (scFv, V domains shown, Tested as scFv-Fc fusion) VH: QVQLVESGGGLVQAGGSLRLSCAASRRSSRSWAMHWVRQAPGKGLEWVAVISYDGRLKYYADSVKGRFTISRDNAEYLVYLQMNSLRAEDTAVYYCAAETGSVGLDYWGQGTLVTVSS VL: DIQMTQSPSSLSASVGDRVTITCRASQGISTYLNWYQQKPGKAPKLLIYGATSLESGVPSRFSGSGSGTDFTLTISSLQPEDFATYYCQQGYSQGTFGQGTKVEIK | s⁻¹ | 0.0057 |
| P01_F05 scFv-Fc fusion (scFv, V domains shown, Tested as scFv-Fc fusion) VH: QVQLVESGGGLVQAGGSLRLSCAASRRSSRSWAMHWVRQAPGKGLEWVAVISYDGRLKYYADSVKGRFTISRDNAEYLVYLQMNSLRAEDTAVYYCAAGPDRWAGYDAFDVWGQGTLVTVSS VL: DIQMTQSPSSLSASVGDRVTITCRASQTINTHLNWYQQKPGKAPKLLIYGASNLQGGVPSRFSGSGSGTDFTLTISSLQPEDFATYYCQQSYSTPLTFGQGTKVEIK | s⁻¹ | 0.01 |
| P16_E06 scFv-Fc fusion (scFv, V domains shown, Tested as scFv-Fc fusion) VH: QVQLVESGGGLVQAGGSLRLSCAASRRSSRSWAMHWVRQAPGKGLEWVAVISYDGRLKYYADSVKGRFTISRDNAEYLVYLQMNSLRAEDTAVYYCAAEGGDYPGTSDGGLDIWGQGTLVTVSS VL: DIQMTQSPSSLSASVGDRVTITCRASQSISNYLNWYQQKPGKAPKLLIYGASSLQSGVPSRFSGSGSGTDFTLTISSLQPEDFATYYCQQSYSAGTFGQGTKVEIK | s⁻¹ | 0.011 |
| P01_A09 scFv-Fc fusion (scFv, V domains shown, Tested as scFv-Fc fusion) VH: QVQLVESGGGLVQAGGSLRLSCAASRRSSRSWAMHWVRQAPGKGLEWVAVISYDGRLKYYADSVKGRFTISRDNAEYLVYLQMNSLRAEDTAVYYCAAERPTSDGSTGGMDVWGQGTLVTVSS VL: DIQMTQSPSSLSASVGDRVTITCRASQSISSYLNWYQQKPGKAPKLLIYGASTLQSGVPSRFSGSGSGTDFTLTISSLQPEDFATYYCQQSYSSGTFGQGTKVEIK | s⁻¹ | 0.017 |
| P03_H04 scFv-Fc fusion (scFv, V domains shown, Tested as scFv-Fc fusion) VH: QVQLVESGGGLVQAGGSLRLSCAASRRSSRSWAMHWVRQAPGKGLEWVAVISYDGRLKYYADSVKGRFTISRDNAEYLVYLQMNSLRAEDTAVYYCAADPHDGYGGGPGFDYWGQGTLVTVSS VL: QSVLTQPPSASGTPGQRVTISCSGSSSNIGSNYVYWYQQLPGTAPKLLIYRSNQRPSGVPDRFSGSKSGTSASLAISGLRSEDEADYYCAAWDDTLSAVVFGTGTKLTVL | s⁻¹ | 0.026 |

Query: Fill in: koff of P02_E08 scFv-Fc fusion (scFv, V domains shown, Tested as scFv-Fc fusion) VH: QVQLVESGGGLVQAGGSLRLSCAASRRSSRSWAMHWVRQAPGKGLEWVAVISYDGRLKYYADSVKGRFTISRDNAEYLVYLQMNSLRAEDTAVYYCAASDYDGGGLFDLWGQGTLVTVSS VL: QSVLTQPPSASGTPGQRVTISCSGSNSNIGDNYVHWYQQLPGTAPKLLIYMNNQRPSGVPDRFSGSKSGTSASLAISGLRSEDEADYYCATWDDSLSGVVFGTGTKLTVL is ___
Response: 0.01

Query: Another: P02_H01 scFv-Fc fusion (scFv, V domains shown, Tested as scFv-Fc fusion) VH: QVQLVESGGGLVQAGGSLRLSCAASRRSSRSWAMHWVRQAPGKGLEWVAVISYDGRLKYYADSVKGRFTISRDNAEYLVYLQMNSLRAEDTAVYYCAAGSGGGDGLDVWGQGTLVTVSS VL: DIQMTQSPSSLSASVGDRVTITCRASQTISSYLNWYQQKPGKAPKLLIYSSSTLQGGVPSRFSGSGSGTDFTLTISSLQPEDFATYYCQQSYSSGTFGQGTKVEIK
Response: 0.037
